The origin of these recorded values is patent US20240246960A1.

target desc: pDNA-PK ser2056 induction in FaDU spheroids (Homo sapiens, UniProt P78527)
Construct: host or cells: FaDu
experiment summary: Multicellular tumour spheroid + radiation, pDNA-PK inhibition, FaDU
Assay type: cell-based
experimental context: Example 8; spheroid; 20 Gy; read-out: Cell line: FaDU Immunohistochemical endpoint pDNA-PK inhibition EC50
parameter: EC50

Example results:
molecule: Cc1nc(C(F)(F)F)cn1[C@H]1CC[C@@H](Oc2nc(N3CCOCC3)cc3ncccc23)CC1 [Compound 17i]
target desc: pDNA-PK ser2056 induction in FaDU spheroids (Homo sapiens, UniProt P78527)
parameter: EC50
test result: 0.5 to 1 µM
--
molecule: O=C(N[C@H]1CC[C@@H](Oc2nc(N3CCOCC3)cc3ncccc23)CC1)c1ccco1
target desc: pDNA-PK ser2056 induction in FaDU spheroids (Homo sapiens, UniProt P78527)
parameter: EC50
test result: 0.01 to 0.5 µM
--
molecule: c1cnc2cc(N3CCOCC3)nc(O[C@H]3CC[C@@H](Nc4ccncc4)CC3)c2c1
target desc: pDNA-PK ser2056 induction in FaDU spheroids (Homo sapiens, UniProt P78527)
parameter: EC50
test result: 0.01 to 0.5 µM
--
molecule: Nc1cnc2cc(N3CCOCC3)nc(O[C@H]3CC[C@@H](n4ccnc4)CC3)c2c1
target desc: pDNA-PK ser2056 induction in FaDU spheroids (Homo sapiens, UniProt P78527)
parameter: EC50
test result: 1 to 10 µM
--
molecule: O=C(N[C@H]1CC[C@@H](Oc2nc(N3CCOCC3)cc3ncccc23)CC1)c1ncccn1
target desc: pDNA-PK ser2056 induction in FaDU spheroids (Homo sapiens, UniProt P78527)
parameter: EC50
test result: 0.01 to 0.5 µM
--
molecule: c1ccc(N[C@H]2CC[C@@H](Oc3nc(N4CCOCC4)cc4ncccc34)CC2)nc1
target desc: pDNA-PK ser2056 induction in FaDU spheroids (Homo sapiens, UniProt P78527)
parameter: EC50
test result: 1 to 10 µM
--
molecule: Brc1cnc2cc(N3CCOCC3)nc(O[C@H]3CC[C@@H](n4ccnc4)CC3)c2c1
target desc: pDNA-PK ser2056 induction in FaDU spheroids (Homo sapiens, UniProt P78527)
parameter: EC50
test result: 0.5 to 1 µM

Turning now to a further molecule:
// EC50 lookup, molecule = "c1cnc2cc(N3CCOCC3)nc(O[C@H]3CC[C@@H](Nc4cnccn4)CC3)c2c1" , result: 0.01 to 0.5 µM
